- Test system: giant foxtail
- Procedure Details: Test A pre-/postemergence herbicide test
- Type: in vivo, Setaria faberi
- Condition: Postemergence, 2000 g ai/ha; 0 to 100 scale, 0 no effect, 100 complete control
// Plant response rating, Foxtail, Giant lookup, one value per entry
Property: Plant response rating, Foxtail, Giant

Compound: CCc1nc(C(C)(C)C)sc1C(=O)Nc1cccc(C(=O)NCC(F)(F)F)c1
Tested System: giant foxtail
Property: Plant response rating, Foxtail, Giant
Numeric Result: 0

Compound: CCOC(=O)c1cc(NC(=O)c2cc(C(C)(C)C)nn2CC)ccc1OC
Tested System: giant foxtail
Property: Plant response rating, Foxtail, Giant
Numeric Result: 80

Compound: C#CCOC(=O)c1cccc(NC(=O)c2cc(C(C)(C)C)nn2C)n1
Tested System: giant foxtail
Property: Plant response rating, Foxtail, Giant
Numeric Result: 0

Compound: CCn1nc(C(C)(C)C)cc1C(=O)Nc1cccc(C(=O)OC(C)(C)C)c1
Tested System: giant foxtail
Property: Plant response rating, Foxtail, Giant
Numeric Result: 0

Compound: CCC(C)c1cc(C(=O)Nc2cccc(C(C)=NO)c2)n(C)n1 (centres unmarked)
Tested System: giant foxtail
Property: Plant response rating, Foxtail, Giant
Numeric Result: 20

###

- System: large crabgrass
- Procedure Details: Test B pre-/postemergence herbicide test
- Format: in vivo, Digitaria sanguinalis
- Condition: Postemergence, 500 g ai/ha; visual rating after 13 to 15 days, scale 0 (no effect) to 100 (complete control)

Mol Smiles: C#CCNC(=O)c1cccc(NC(=O)c2cc(C(C)(C)C)nn2CC)c1
Plant response rating, Crabgrass, Large: 70
//
Mol Smiles: CCn1nc(C(C)(C)C)cc1C(=O)Nc1cccc(C(=O)OCC(F)(F)F)c1
Plant response rating, Crabgrass, Large: 30
//
Mol Smiles: CCNC(=O)c1cc(NC(=O)c2cc(C(C)(C)C)nn2CC)ccc1F
Plant response rating, Crabgrass, Large: 30
//
Mol Smiles: CCOC(=O)c1cc(NC(=O)c2cc(C(C)(C)C)nn2CC)ccc1OC
Plant response rating, Crabgrass, Large: 50
//
Mol Smiles: CCCCOC(=O)c1cccc(NC(=O)c2cc(C(C)(C)C)nn2CC)c1
Plant response rating, Crabgrass, Large: 90
//
Mol Smiles: C=CCNC(=O)c1cccc(NC(=O)c2cc(C(C)(C)C)nn2CC)c1
Plant response rating, Crabgrass, Large: 90
//
Mol Smiles: CCCN1CCc2c(NC(=O)c3cc(C(C)(C)C)nn3CC)cccc2C1=O
Plant response rating, Crabgrass, Large: 20

###

// Plant response rating, Foxtail, Giant lookup, one value per entry
- Tested on: giant foxtail
- Procedure Details: Test B pre-/postemergence herbicide test
- Format: in vivo, Setaria faberi
- Condition: Postemergence, 500 g ai/ha; visual rating after 13 to 15 days, scale 0 (no effect) to 100 (complete control)

Mol Smiles: CCON=C(C)c1cccc(NC(=O)c2cc(C(C)(C)C)nn2C)c1
Plant response rating, Foxtail, Giant: 0

Mol Smiles: CC(=NO)c1cc(NC(=O)c2cc(C(C)(C)C)nn2C)ccc1F
Plant response rating, Foxtail, Giant: 20

Mol Smiles: CCN(CC)C(=O)c1cc(NC(=O)c2cc(C(C)(C)C)nn2CC)ccc1F
Plant response rating, Foxtail, Giant: 20

Mol Smiles: CC(=NO)c1cccc(NC(=O)c2cc(C(C)(C)C)nn2CCF)c1
Plant response rating, Foxtail, Giant: 30

Mol Smiles: C=Cn1nc(C(C)(C)C)cc1C(=O)Nc1cccc(C(=O)NCC(F)(F)F)c1
Plant response rating, Foxtail, Giant: 20

Mol Smiles: CCN(C)C(=O)c1cccc(NC(=O)c2cc(C(C)(C)C)nn2CC)c1
Plant response rating, Foxtail, Giant: 30

Mol Smiles: CCOC(=O)c1cccc(NC(=O)c2cc(C(C)(C)C)nn2CC)c1C
Plant response rating, Foxtail, Giant: 40

Mol Smiles: CCn1nc(C(C)(C)C)cc1C(=O)Nc1cccc(C(=O)OC(C)(C)C)c1
Plant response rating, Foxtail, Giant: 10

Mol Smiles: C=Cn1nc(C(C)(C)C)cc1C(=O)Nc1cccc(C(C)=NO)c1
Plant response rating, Foxtail, Giant: 30

Mol Smiles: CC(=NO)c1cccc(NC(=O)c2cc(C(C)(C)C)nn2C(C)C)c1
Plant response rating, Foxtail, Giant: 10

Mol Smiles: CCCOC(=O)c1cccc(NC(=O)c2cc(C(C)(C)C)nn2CC)c1C
Plant response rating, Foxtail, Giant: 10

###

- Tested on: soybean
- Procedure Details: Test C pre-/postemergence herbicide test
- Format: in vivo, Glycine max
- Condition: postemergence; 62 g ai/ha; scale 0 to 100
// Plant response rating, Soybean lookup, one value per entry
Property: Plant response rating, Soybean

Compound: CCn1nc(C(C)(C)C)cc1C(=O)Nc1cccc(OC(F)F)c1 [Compound 332]
Tested System: soybean
Numeric Result: 45
//
Compound: CC(=NO)c1cccc(NC(=O)c2cc(C(C)(C)C)nn2CCF)c1 [Compound 115]
Tested System: soybean
Numeric Result: 60
//
Compound: C=Cn1nc(C(C)(C)C)cc1C(=O)Nc1cccc(C(=O)NCC)c1 [Compound 33]
Tested System: soybean
Numeric Result: 80
//
Compound: C=Cn1nc(C(C)(C)C)cc1C(=O)Nc1cccc(C(C)=NO)c1 [Compound 114]
Tested System: soybean
Numeric Result: 70

###

// Plant response rating, Velvetleaf lookup, one value per entry
- Tested on: velvetleaf
- Procedure Details: Test C pre-/postemergence herbicide test
- Type: in vivo, Abutilon theophrasti
- Condition: postemergence, 125 g ai/ha; scale 0 to 100
Property: Plant response rating, Velvetleaf

Mol Smiles: CCCCOC(=O)c1cccc(NC(=O)c2cc(C(C)(C)C)nn2CC)c1
Numeric Result: 60

Mol Smiles: CCn1nc(C(C)(C)C)cc1C(=O)Nc1cccc(SC(F)(F)F)c1
Numeric Result: 30

Mol Smiles: CCn1nc(C(C)(C)C)cc1C(=O)Nc1cccc(OC(F)F)c1
Numeric Result: 60

Mol Smiles: C=Cn1nc(C(C)(C)C)cc1C(=O)Nc1cccc(C(C)=NO)c1
Numeric Result: 70

###

- Tested on: Surinam grass
- Procedure Details: Test B pre-/postemergence herbicide test
- Format: in vivo, Urochloa decumbens
- Condition: 500 g ai/ha; visual rating, 0 = no effect, 100 = complete control; preemergence
- Experimental: […] At the same time, plants selected from these crop and weed species and also blackgrass (Alopecurus myosuroides Huds.), wheat (Triticum aestivum L.) and wild oat (Avena fatua L.) were treated with postemergence applications of test chemicals formulated in the same manner. […] Treated plants and controls were maintained in a greenhouse for 13 to 15 days, after which time all species were compared to controls and visually evaluated. […]

Mol Smiles: CCc1nn(C(C)(C)C)cc1C(=O)Nc1cc(C(=O)N(C)C)ccn1
Plant response rating, Surinam Grass: 100

Mol Smiles: C#CCOC(=O)c1cccc(NC(=O)c2cc(C(C)(C)C)nn2C)n1
Plant response rating, Surinam Grass: 0

Mol Smiles: CCc1nn(C(C)(C)C)nc1C(=O)Nc1cc(C(=O)N(C)C)ccc1F
Plant response rating, Surinam Grass: 90

Mol Smiles: CCn1nc(C(C)(C)C)cc1C(=O)Nc1cc(C(=S)N(C)C)ccn1
Plant response rating, Surinam Grass: 100

Mol Smiles: CCOC(=O)c1cccc(NC(=O)c2cc(C(C)(C)C)nn2C)n1
Plant response rating, Surinam Grass: 80

Mol Smiles: CCc1nn(C2CCCC2)nc1C(=O)Nc1cccc(C(=O)N2CC=CC2)c1
Plant response rating, Surinam Grass: 20

Mol Smiles: CCNC(=O)c1ccc(F)c(NC(=O)c2c3c(nn2CC)C(C)(C)CC3)c1
Plant response rating, Surinam Grass: 30

Mol Smiles: CCNC(=O)c1ccc(F)c(NC(=O)c2cn(C(C)(C)C)nc2C)c1
Plant response rating, Surinam Grass: 70

Mol Smiles: CCn1nc(C(C)(C)C)cc1C(=O)Nc1cccc(OC(F)F)c1
Plant response rating, Surinam Grass: 20

###

- System: wild oat
- Procedure Details: Test B postemergence herbicide test
- Type: in vivo, Avena fatua
- Condition: 125 g ai/ha; visual rating, scale 0 (no effect) to 100 (complete control); postemergence
Property: Oat, Wild plant response rating

Compound: Cc1nn(C(C)C)nc1C(=O)Nc1cccc(C(=O)N(C)C)c1 [Compound 404]
Numeric Result: 0
--
Compound: CCn1nc(C(C)(C)C)cc1C(=O)Nc1cc(C(=S)N(C)C)ccc1F [Compound 294]
Numeric Result: 40
--
Compound: CCc1nn(C(C)(C)C)nc1C(=O)Nc1cccc(C(=O)N(C)CC)c1 [Compound 384]
Numeric Result: 10
--
Compound: CCn1nc(C(C)(C)C)cc1C(=O)Nc1cc(C(=S)N(C)C)ccn1 [Compound 334]
Numeric Result: 20
--
Compound: CCn1nc(C(C)(C)C)cc1C(=O)Nc1cc(OC)ccc1F [Compound 347]
Numeric Result: 0
--
Compound: CCN(C)C(=O)c1ccc(F)c(NC(=O)c2nn(C(C)C)nc2C)c1 [Compound 403]
Numeric Result: 0
--
Compound: CCNC(=O)c1cccc(NC(=O)c2cc(C3(C)CC3)nn2CC)c1 [Compound 306]
Numeric Result: 20
--
Compound: CCc1nn(C(C)(C)C)nc1C(=O)Nc1cccc(C(=O)N2CC=CC2)c1 [Compound 366]
Numeric Result: 40
--
Compound: CCC1=NN(C(C)(C)C)CC1C(=O)Nc1cc(C(=O)N(C)C)ccc1F (racemic) [Compound 343]
Numeric Result: 10
--
Compound: CCNC(=O)c1cccc(NC(=O)c2nn(C(C)(C)C)nc2C)c1 [Compound 392]
Numeric Result: 0
--
Compound: CCOC(=O)c1cccc(NC(=O)c2nn(C(C)(C)CC)nc2CC)c1 [Compound 375]
Numeric Result: 40

The values you see were collected from patent US20060069132A1.
